Reference for the values: patent US20100310640A1

- target-desc: T1, HLA-DR molecule DRB5*0101 (human)
- T1 chain 1: not shown
- T1 chain 2: not shown
- assay-text: radioligand inhibition, purified HLA-DR
- condition-summary: remark: other sources report otherwise
// reported IC50 per item
Output spec: scalar in nM, unitless text.

LREVRAVTSANIQEF [Peptide 9019.0046 (Her2/neu.350)] : 94

Continue with the next binder.
I am curious: what IC50 value has been reported for ERGPLEHLYSLHIPN [Peptide 9019.0190 (IGFBP2.249)] ? 4000
